# study target: Lysine-specific demethylase 4A (Homo sapiens) (UniProt O75164)
# Sequence (O75164 whole entry, looked up, the tested form may be a part): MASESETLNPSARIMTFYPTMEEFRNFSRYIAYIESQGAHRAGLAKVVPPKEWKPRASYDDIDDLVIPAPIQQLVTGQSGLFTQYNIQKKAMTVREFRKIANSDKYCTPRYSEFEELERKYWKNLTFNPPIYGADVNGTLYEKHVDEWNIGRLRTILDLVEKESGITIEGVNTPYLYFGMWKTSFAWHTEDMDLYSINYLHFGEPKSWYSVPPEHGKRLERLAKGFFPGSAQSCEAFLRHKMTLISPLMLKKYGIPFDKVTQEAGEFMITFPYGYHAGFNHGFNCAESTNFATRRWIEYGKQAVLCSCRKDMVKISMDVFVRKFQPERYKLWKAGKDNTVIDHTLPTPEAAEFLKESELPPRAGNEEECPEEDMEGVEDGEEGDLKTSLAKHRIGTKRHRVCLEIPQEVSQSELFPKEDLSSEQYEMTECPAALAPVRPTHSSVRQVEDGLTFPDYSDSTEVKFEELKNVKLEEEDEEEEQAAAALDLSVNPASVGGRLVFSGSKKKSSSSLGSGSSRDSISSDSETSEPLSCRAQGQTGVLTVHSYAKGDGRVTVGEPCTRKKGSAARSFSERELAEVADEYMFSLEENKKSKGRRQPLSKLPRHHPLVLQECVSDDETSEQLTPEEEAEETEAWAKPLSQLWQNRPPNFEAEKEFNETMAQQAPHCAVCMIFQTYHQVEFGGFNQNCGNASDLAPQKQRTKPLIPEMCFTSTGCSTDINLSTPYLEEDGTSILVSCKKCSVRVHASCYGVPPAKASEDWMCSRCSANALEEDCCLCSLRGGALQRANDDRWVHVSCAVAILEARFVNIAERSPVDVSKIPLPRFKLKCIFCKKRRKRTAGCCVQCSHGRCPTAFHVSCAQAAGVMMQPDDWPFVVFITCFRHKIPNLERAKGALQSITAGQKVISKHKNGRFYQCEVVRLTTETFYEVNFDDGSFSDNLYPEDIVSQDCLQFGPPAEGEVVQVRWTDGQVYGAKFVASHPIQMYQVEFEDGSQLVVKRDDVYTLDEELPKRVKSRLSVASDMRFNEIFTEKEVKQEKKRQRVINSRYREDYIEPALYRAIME
# protocol description: qHTS Assay for Inhibitors of JMJD2A-Tudor Domain; further: nearly all actives have a fitted effect of over 50% in size
# measurement setup: AlphaScreen JMJD2A-Tudor / H3K4me3 peptide binding; series mostly up to 114 µM
About 17,000 (4.4%) of roughly 390,000 compounds were called active. Not shown: some 8% with an inconclusive outcome. The call rests on the fitted dose curve; in most records, active means well fitted inhibition curve with a large enough effect; inconclusive means small, poorly fitted or top-dose-only effect; inactive means no such curve, though single readings can be large or run the other way. The list comes from a sample in which actives are over-represented; it also holds close analogues and randomly drawn compounds.
Hello, when you answer, please use one of the following outcomes: label 1 (active), label 0 (inactive)

| molecule | study target | label value |
| --- | --- | --- |
| Cc1ccc(NC(=S)N(CCCN2CCCC2)Cc2cccn2Cc2ccc(Cl)cc2)cc1 | Lysine-specific demethylase 4A (Homo sapiens) (UniProt O75164) | label 1 |
| Cc1ccc(N2CC(C(=O)Nc3ccc(S(=O)(=O)N4CCCC4)cc3)CC2=O)cc1C (centres undefined) | Lysine-specific demethylase 4A (Homo sapiens) (UniProt O75164) | label 0 |
| COc1ccc(C(=O)Nc2nonc2-c2ccc(OC)c(OC)c2)cc1Cl | Lysine-specific demethylase 4A (Homo sapiens) (UniProt O75164) | label 0 |
| N#Cc1nc(Nc2cc(F)cc(Cl)c2)nc(NC2CCCC2)n1 | Lysine-specific demethylase 4A (Homo sapiens) (UniProt O75164) | label 0 |
| COc1ccc2c(CNCCc3ccccc3C)c(C(=O)O)n(Cc3ccccc3C)c2c1 | Lysine-specific demethylase 4A (Homo sapiens) (UniProt O75164) | label 0 |
| COc1ccc(C(=O)N2CCCCC2C(=O)Nc2ccc(-n3nc(C)cc3C)cc2)o1 (centres undefined) | Lysine-specific demethylase 4A (Homo sapiens) (UniProt O75164) | label 1 |
| Cc1cccc(OCC(=O)N(Cc2ccc(C(C)C)cc2)Cc2ccco2)c1C | Lysine-specific demethylase 4A (Homo sapiens) (UniProt O75164) | label 0 |
| CNS(=O)(=O)c1ccc(NC(=O)C2CC(=O)N(c3ccc(Cl)cc3)C2)cc1 (centres undefined) | Lysine-specific demethylase 4A (Homo sapiens) (UniProt O75164) | label 1 |
| O=C1C(Cl)=C(Oc2ccccc2)C(=O)c2ccccc21 | Lysine-specific demethylase 4A (Homo sapiens) (UniProt O75164) | label 1 |
| COc1ccc(-c2cc(-c3ccccc3)nc3c2COc2ccc(Cl)cc2-3)cc1 | Lysine-specific demethylase 4A (Homo sapiens) (UniProt O75164) | label 0 |

Incoming: Dear all, I need the recorded test outcome for "O=C(Nc1ccc(C(=O)OCc2cc(=O)n3nc(C4CC4)sc3n2)cc1)c1ccc(F)cc1" , thank you.
Outgoing: label 0

Incoming: Dear all, I need the recorded test outcome for "CC1CCN(CC(=O)Nc2nccs2)CC1" , thank you.
Outgoing: label 0

Incoming: Dear all, I need the recorded test outcome for "O=C(NCCCN1CCOCC1)c1cc(-c2ccccc2F)no1" , thank you.
Outgoing: label 0

Incoming: Dear all, I need the recorded test outcome for "NC(=O)c1c(Nc2nc3c(F)cccc3s2)sc2c1CCCC2" , thank you.
Outgoing: label 0

Incoming: Dear all, I need the recorded test outcome for COC(=O)CN1C(=O)C(O)=C(C(C)=O)C1c1ccc([N+](=O)[O-])cc1 (centres undefined) , thank you.
Outgoing: label 1

---

# study target: Lysine-specific demethylase 4A (Homo sapiens) (UniProt O75164)
# protocol description: qHTS Assay for Inhibitors of JMJD2A-Tudor Domain; further: nearly all actives have a fitted effect of over 50% in size
# measurement setup: AlphaScreen JMJD2A-Tudor / H3K4me3 peptide binding; series mostly up to 114 µM
About 17,000 (4.4%) of roughly 390,000 compounds were called active. Inconclusive results (about 8%) are left out. The call rests on the fitted dose curve; in most records, active means well fitted inhibition curve with a large enough effect; inconclusive means small, poorly fitted or top-dose-only effect; inactive means no such curve, though single readings can be large or run the other way. The list comes from a sample in which actives are over-represented; it also holds close analogues and randomly drawn compounds.
Hello, when you answer, please use one of the following outcomes: active, inactive

| compound | label value |
| --- | --- |
| COc1ccc(S(=O)(=O)N2CCCC(C(=O)N3CCN(C)CC3)C2)cc1C (configuration not stated) | inactive |
| Cc1cc(C)cc(NC(=O)CSc2nc(=O)n(CCN3CCOCC3)c3c2CCC3)c1 | inactive |
| COc1ccc2cc(CNc3ccc(OC)c(OC)c3)c(=O)n(CC(=O)Nc3ccccc3F)c2c1 | inactive |
| COc1cc(OC)cc(-c2nc3nc(C)c(CCC(=O)Nc4ccc(C)cc4)c(C)n3n2)c1 | inactive |
| S=c1c2[nH]cnc2ncn1CCSc1ncnc2nc[nH]c12 | active |

Incoming: Dear all, I need the recorded test outcome for "COc1ccc(OCc2ccc(-c3nc(C#N)c(N4CCN(c5ccccc5)CC4)o3)o2)cc1" , thank you.
Outgoing: inactive

Incoming: Dear all, I need the recorded test outcome for "CN1CCN(c2oc(-c3ccc(COc4ccc(Cl)cc4)o3)nc2C#N)CC1" , thank you.
Outgoing: active

Incoming: Dear all, I need the recorded test outcome for "Cc1ccc(NC(=O)c2ccc(CSc3ncnc4nc[nH]c34)cc2)c(C)c1" , thank you.
Outgoing: inactive
